- Test system: T24 cells derived from human bladder cancer
- MEASUREMENT PROTOCOL: Inhibiting mode of leucine incorporation by T24 cells by BCH, double reciprocal plots
- Type: cell-based
- TEST PARAMETERS: 14C-leucine incorporation, 50 μM and 100 μM of BCH
pKi: −log10 of the molar value.
PROPERTY LABEL: pKi

| MOLECULE | RECORDED MEASUREMENT |
| --- | --- |
| NC1(C(=O)O)CC2CCC1C2 (stereo not shown) | 3.81 |

---

- SYSTEM TESTED: human amino acid transporter LAT1 (Homo sapiens, UniProt Q01650)
- Sequence (Q01650 whole entry): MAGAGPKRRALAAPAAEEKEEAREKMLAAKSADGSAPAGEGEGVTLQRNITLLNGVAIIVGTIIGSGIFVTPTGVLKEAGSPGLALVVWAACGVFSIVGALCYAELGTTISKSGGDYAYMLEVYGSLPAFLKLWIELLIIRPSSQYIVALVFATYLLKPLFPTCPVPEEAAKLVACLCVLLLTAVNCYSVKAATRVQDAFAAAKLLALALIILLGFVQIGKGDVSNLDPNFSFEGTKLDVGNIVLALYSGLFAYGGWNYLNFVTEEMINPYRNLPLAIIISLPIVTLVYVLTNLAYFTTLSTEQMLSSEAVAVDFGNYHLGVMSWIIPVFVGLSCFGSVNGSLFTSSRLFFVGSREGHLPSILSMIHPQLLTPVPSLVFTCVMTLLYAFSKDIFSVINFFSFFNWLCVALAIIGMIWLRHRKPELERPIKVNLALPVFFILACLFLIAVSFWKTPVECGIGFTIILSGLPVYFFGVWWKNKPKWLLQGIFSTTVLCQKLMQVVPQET
- Sequence (as listed by the source partner): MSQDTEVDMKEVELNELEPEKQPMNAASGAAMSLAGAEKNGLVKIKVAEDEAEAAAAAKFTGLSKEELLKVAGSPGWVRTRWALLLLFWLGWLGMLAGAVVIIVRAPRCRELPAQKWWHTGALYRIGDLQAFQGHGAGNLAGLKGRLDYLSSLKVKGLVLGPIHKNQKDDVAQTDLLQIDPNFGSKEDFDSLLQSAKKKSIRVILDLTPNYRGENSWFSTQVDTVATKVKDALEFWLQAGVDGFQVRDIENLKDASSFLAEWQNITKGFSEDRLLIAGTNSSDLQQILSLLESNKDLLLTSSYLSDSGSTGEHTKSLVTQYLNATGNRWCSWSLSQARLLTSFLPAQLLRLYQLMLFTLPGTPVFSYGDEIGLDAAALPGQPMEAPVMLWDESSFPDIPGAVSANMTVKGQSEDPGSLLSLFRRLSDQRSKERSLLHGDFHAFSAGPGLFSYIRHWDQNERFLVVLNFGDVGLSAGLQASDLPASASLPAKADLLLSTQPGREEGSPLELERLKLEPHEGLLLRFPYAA
- MEASUREMENT PROTOCOL: Incorporation of 14C-labeled amino acids into oocytes co-expressing human LAT1 and human 4F2hc
- Assay type: cell-based
- Parameters: expressed in transfected cells
- TEST PARAMETERS: summary statement of the disclosure
PROPERTY LABEL: incorporation in a cell in which human LAT1 and human 4F2hc are co-expressed

| MOLECULE | RECORDED MEASUREMENT |
| --- | --- |
| NC1(C(=O)O)CC2CCC1C2 (centres unmarked) [BCH, 2-amino-2-norbornane-carboxylic acid] | confirmed |
| N[C@@H](Cc1ccc(O)c(O)c1)C(=O)O [L-DOPA] | confirmed |

---

- SYSTEM TESTED: rat neutral amino acid transporter LAT1 (Rattus norvegicus)
- Sequence (Q63016 whole entry): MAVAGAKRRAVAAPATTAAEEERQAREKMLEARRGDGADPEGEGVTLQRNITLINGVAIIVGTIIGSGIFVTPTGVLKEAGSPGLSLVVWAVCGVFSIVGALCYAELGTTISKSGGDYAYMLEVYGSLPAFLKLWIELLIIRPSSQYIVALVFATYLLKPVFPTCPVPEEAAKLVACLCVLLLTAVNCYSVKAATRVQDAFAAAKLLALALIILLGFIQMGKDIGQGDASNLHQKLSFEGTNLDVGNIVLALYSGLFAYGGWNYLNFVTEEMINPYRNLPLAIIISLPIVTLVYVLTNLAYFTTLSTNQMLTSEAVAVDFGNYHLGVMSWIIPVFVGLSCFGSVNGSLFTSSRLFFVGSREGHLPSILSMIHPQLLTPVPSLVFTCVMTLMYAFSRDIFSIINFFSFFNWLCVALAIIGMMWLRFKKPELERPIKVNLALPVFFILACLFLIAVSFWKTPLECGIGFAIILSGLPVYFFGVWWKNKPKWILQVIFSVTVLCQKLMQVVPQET
- Sequence (Q794F9 whole entry partner): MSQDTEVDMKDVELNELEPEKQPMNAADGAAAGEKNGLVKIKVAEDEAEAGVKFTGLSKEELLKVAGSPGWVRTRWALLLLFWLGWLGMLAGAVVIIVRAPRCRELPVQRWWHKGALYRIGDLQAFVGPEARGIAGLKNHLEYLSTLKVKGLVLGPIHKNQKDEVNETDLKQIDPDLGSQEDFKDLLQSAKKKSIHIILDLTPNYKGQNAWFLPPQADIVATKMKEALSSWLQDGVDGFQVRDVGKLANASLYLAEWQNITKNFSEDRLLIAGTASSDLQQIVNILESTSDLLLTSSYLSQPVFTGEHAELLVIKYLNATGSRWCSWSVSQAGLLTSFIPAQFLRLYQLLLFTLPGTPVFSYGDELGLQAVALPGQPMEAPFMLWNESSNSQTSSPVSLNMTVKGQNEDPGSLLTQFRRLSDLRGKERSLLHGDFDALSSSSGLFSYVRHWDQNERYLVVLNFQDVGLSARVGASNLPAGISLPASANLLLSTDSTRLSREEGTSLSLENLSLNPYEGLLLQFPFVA
- MEASUREMENT PROTOCOL: Inhibition of 14C-leucine incorporation into oocytes injected with rat LAT1 and rat 4F2hc cRNA by amino acids and similar substances
- Type: cell-based
- Parameters: expressed in transfected cells; host or cells: oocytes (Xenopus laevis by the cited method of Kanai and Hediger) injected with rat LAT1 cRNA and rat 4F2hc cRNA
- TEST PARAMETERS: rat LAT1/rat 4F2hc oocytes; 14C-leucine 20 μM, 2 mM unlabeled compound, choline uptake solution
PROPERTY LABEL: inhibition of incorporation of 14C-leucine mediated by LAT1

| MOLECULE | SYSTEM TESTED | RECORDED MEASUREMENT |
| --- | --- | --- |
| N[C@@H](Cc1ccc(O)cc1)C(=O)O [tyrosine] | rat neutral amino acid transporter LAT1 (Rattus norvegicus) | strongly inhibited |
| N[C@@H](Cc1ccccc1)C(=O)O [phenylalanine] | rat neutral amino acid transporter LAT1 (Rattus norvegicus) | strongly inhibited |
| CSCC[C@H](N)C(=O)O [methionine] | rat neutral amino acid transporter LAT1 (Rattus norvegicus) | strongly inhibited |
| N[C@@H](Cc1c[nH]c2ccccc12)C(=O)O [tryptophan] | rat neutral amino acid transporter LAT1 (Rattus norvegicus) | strongly inhibited |
| N[C@@H](Cc1cc(I)c(Oc2cc(I)c(O)c(I)c2)c(I)c1)C(=O)O [thyroxin] | rat neutral amino acid transporter LAT1 (Rattus norvegicus) | inhibited |
| N[C@@H](Cc1c[nH]cn1)C(=O)O [histidine] | rat neutral amino acid transporter LAT1 (Rattus norvegicus) | strongly inhibited |
| CC(C)[C@H](N)C(=O)O [valine] | rat neutral amino acid transporter LAT1 (Rattus norvegicus) | strongly inhibited |
| CC(C)C[C@H](N)C(=O)O [leucine] | rat neutral amino acid transporter LAT1 (Rattus norvegicus) | strongly inhibited |
| CC[C@H](C)[C@H](N)C(=O)O [isoleucine] | rat neutral amino acid transporter LAT1 (Rattus norvegicus) | strongly inhibited |
| NC1(C(=O)O)CC2CCC1C2 (centres unmarked) [BCH, 2-amino-2-norbornane-carboxylic acid] | rat neutral amino acid transporter LAT1 (Rattus norvegicus) | inhibited |
| N[C@@H](Cc1ccc(N(CCCl)CCCl)cc1)C(=O)O [melphalan] | rat neutral amino acid transporter LAT1 (Rattus norvegicus) | inhibited |

---

- SYSTEM TESTED: UniProt Q01650
- MEASUREMENT PROTOCOL: Competitive antagonism test: incorporation of 14C-labeled leucine or phenylalanine into oocytes co-expressing human LAT1 and human 4F2hc in the presence of test substance
- Format: cell-based
- Design: expressed in transfected cells
- TEST PARAMETERS: 14C-labeled leucine 20 μM, test substance 2 mM, 30 minutes, choline chloride uptake solution
PROPERTY LABEL: inhibition of incorporation of 14C-labeled leucine mediated by the human LAT1

| COMPOUND | RECORDED MEASUREMENT |
| --- | --- |
| N[C@@H](Cc1c[nH]c2ccccc12)C(=O)O [tryptophan] | strongly inhibited |
| CC(C)C[C@H](N)C(=O)O [leucine] | strongly inhibited |
| CSCC[C@H](N)C(=O)O [methionine] | strongly inhibited |
